- System: JNK2
- Construct: gene MAPK9
- conditionDescription: concentration: 1 μM,replicates: in singlicate; n = 1;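 also: KINOMEscan kinase panel screen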
Classes are defined on %Inh with ranges bottom: < 10%; middle: ≥ 10% and < 30%; top: ≥ 30%

Example results:
Cl.c1ccc(Oc2ccc(Nc3ccnc4cc(-c5ccc(CN6CCNCC6)o5)ccc34)cc2)nc1 [GW567142]	bottom
Cl.Nc1n[nH]c2cc(-c3ccccn3)ccc12 [GSK2189892]	bottom
c1ccc(Oc2ccc(Nc3ccnc4ccc(-c5ccccn5)cc34)cc2)cc1 [GW407034]	middle
N#Cc1cccc(C(=O)NC2CCN(c3ccnc(Nc4ccc(F)cc4)n3)C2)c1 (stereo not drawn) [GSK1379708]	top
Cc1ccn2nc(-c3ccc(F)cc3)c(-c3ccncc3)c2c1.Cl [GW457859]	top

Problem: For this molecule, which bin applies? Cn1ccc2ncnc(Oc3ccc(NC(=O)Nc4cc(C(C)(C)C)on4)c(Cl)c3)c21
Result: top

Problem: For this molecule, which bin applies? Cc1ccc2c(-c3ccnc(Nc4ccc(C(F)(F)F)cc4)n3)cnn2n1 [GW819776]
Result: top

Problem: For this molecule, which bin applies? Cn1ccc2ncnc(Oc3ccc(NC(=O)Nc4cccc(C(F)(F)F)c4)c(Cl)c3)c21
Result: bottom

----------
- Test system: SNRK
- conditionDescription: concentration: 1 μM,replicates: in singlicate; n = 1
testReadout: %Inh (%)
Reply with just the number (in %).

Check out these entries, answers already filled in.
Cc1cccc2c(-c3ccncc3)c(-c3ccc(F)cc3)nn12.Cl [GW461487]	0
Cc1n[nH]c2cc(Nc3ccnc(Nc4cccc(CN5CCOCC5)c4)n3)ccc12 [GW682569]	0
Nc1nccc(-c2ccc3c(N)n[nH]c3c2)n1 [GSK1034945]	0
COc1cccc(C2=C(Nc3cccc(Cl)c3)C(=O)NC2=O)c1 [SB-341556]	9
O=C1NCCc2[nH]c(-c3ccncc3)cc21	12
CCNCC(Cc1ccccc1)NC(=O)c1cc(Br)c(-c2ccnc3[nH]ccc23)s1.Cl.Cl (stereo not shown) [GSK1383280]	0

Problem: What value of %Inh has been recorded for this entry: Cl.Nc1n[nH]c2cc(-c3ccccn3)ccc12 [GSK2189892]
Result: 0

Problem: What value of %Inh has been recorded for this entry: COc1cccc(OC)c1C(=O)Nc1cccc(-c2nn3ccccc3c2-c2ccnc(Nc3cccc(F)c3)n2)c1 [GSK361065]
Result: 0

Problem: What value of %Inh has been recorded for this entry: Cc1ccc(C(=O)Nc2ccc(Oc3ccc4nc(NC(=O)C5CC5)cn4c3)c(F)c2)c(=O)n1-c1ccccc1
Result: 0

----------
Listing of recorded %Inh by entry.
- Test system: CLK4
- conditionDescription: concentration: 1 μM,replicates: in singlicate; n = 1
Reply with just the number (in %).

Check out these entries, answers already filled in.
O=C(Nc1cccc(C(F)(F)F)c1)c1cccc(Oc2ccc3nccn3n2)c1	4
CCCC(=O)Nc1n[nH]c2ncccc12 [SB-601436]	0
C[C@@H](Oc1cc(-n2cnc3cc(-c4ccncc4)ccc32)sc1C(N)=O)c1ccccc1Cl [GSK479719]	68
Cl.c1ccc(Oc2ccc(Nc3ccnc4cc(-c5ccc(CN6CCNCC6)o5)ccc34)cc2)nc1 [GW567142]	0
CCn1c(-c2nonc2N)nc2cncc(Br)c21 [SB-738004]	37

Problem: Find the measured %Inh: item Cn1ccc2ncnc(Oc3ccc(NC(=O)Nc4cnn(C(C)(C)C)c4)c(Cl)c3)c21 , target or system CLK4.
Result: 9

Problem: Find the measured %Inh: item C[C@@H](Oc1cc(-n2cnc3ccc(-c4ccncc4)cc32)sc1C(N)=O)c1ccccc1Cl [GSK483724] , target or system CLK4.
Result: 97.1

Problem: Find the measured %Inh: item O=c1[nH]cc(-c2ccc(O)cc2)c2sc(-c3ccncc3)cc12 [GSK1033723] , target or system CLK4.
Result: 95.9

Problem: Find the measured %Inh: item CCNCC(Cc1ccccc1)NC(=O)c1cc(Br)c(-c2ccnc3[nH]ccc23)s1.Cl.Cl (centres unmarked) [GSK1383280] , target or system CLK4.
Result: 59

Problem: Find the measured %Inh: item COC(=O)Nc1nc2cc(Oc3ccc(NC(=O)Nc4cc(C(F)(F)F)ccc4Cl)cc3)ccc2[nH]1.Cl [GW697465] , target or system CLK4.
Result: 43

Problem: Find the measured %Inh: item COc1cccc(OC)c1C(=O)Nc1cccc(-c2nn3ccccc3c2-c2ccnc(Nc3cccc(F)c3)n2)c1 [GSK361065] , target or system CLK4.
Result: 0

----------
- Test system: CHEK1
- conditionDescription: concentration: 1 μM,replicates: in singlicate; n = 1
testReadout: %Inh (%)
Reply with just the number (in %).

Check out these entries, answers already filled in.
CS(=O)(=O)c1cccc(CNc2nc(Nc3ccc4c(c3)[C@@H]3C[C@@H]4CNC3=O)ncc2C(F)(F)F)c1	0
CC(=O)Nc1ccc(-c2cc3ncnc(SCC(=O)O)c3s2)cc1	1

Next, consider the following compound.
Problem: What value of %Inh has been recorded for this entry: Cc1cccc(-c2nc(Nc3ccncc3)c3sccc3n2)n1 [GW869641]
Result: 0

----------
- System: FLT3-autoinhibited
- conditionDescription: concentration: 1 μM,replicates: in singlicate; n = 1
testReadout: %Inh (%)
Reply with just the number (in %).

Check out these entries, answers already filled in.
O=C(NCC1CC1)c1ccc(-c2cc(C(=O)NC3CC3)ccc2F)cc1	0
Cn1ccc2ncnc(Oc3ccc(NC(=O)Nc4cccc(C(F)(F)F)c4)c(F)c3)c21	38
Cn1ccc2ncnc(Oc3ccc(NC(=O)Nc4cnn(C(C)(C)C)c4)c(Cl)c3)c21	8
COc1ccc(Nc2nccc(N3CCC(NC(=O)c4cccc(C#N)c4)C3)n2)cc1 (stereo not drawn)	0
Cl.c1ccc(Oc2ccc(Nc3ccnc4cc(-c5ccc(CN6CCNCC6)o5)ccc34)cc2)nc1	41

Problem: What value of %Inh has been recorded for this entry: CC(C)c1nc(-c2cccc(NS(=O)(=O)c3ccccc3)c2)c(-c2ccnc(Nc3ccc4c(c3)CN(C)CC4)n2)s1
Result: 40

Problem: What value of %Inh has been recorded for this entry: CSc1nccc(-c2c(-c3ccc(F)cc3)ncn2CCCN2CCOCC2)n1.Cl
Result: 0

Problem: What value of %Inh has been recorded for this entry: c1ccc(Oc2ccc(Nc3ccnc4ccc(-c5ccccn5)cc34)cc2)cc1
Result: 0

Problem: What value of %Inh has been recorded for this entry: Cn1ccc2ncnc(Oc3ccc(NC(=O)Nc4ccnc(C(F)(F)F)c4)c(Cl)c3)c21
Result: 0

Problem: What value of %Inh has been recorded for this entry: CS(=O)(=O)Nc1ccc(-c2ccnc3[nH]ccc23)cc1
Result: 10

Problem: What value of %Inh has been recorded for this entry: Cc1n[nH]c2cc(Nc3ccnc(Nc4cccc(CN5CCOCC5)c4)n3)ccc12
Result: 18

Problem: What value of %Inh has been recorded for this entry: Cc1ccc(C(=O)Nc2ccc(Oc3ccc4nc(NC(=O)C5CC5)cn4c3)c(F)c2)c(=O)n1-c1ccccc1
Result: 62

----------
- Test system: DAPK3
- conditionDescription: concentration: 1 μM,replicates: in singlicate; n = 1
Listing of recorded %Inh by entry.
Reply with just the number (in %).

Check out these entries, answers already filled in.
C[C@@H]1CNc2c(sc3ccc4nc(-c5ccc(O)cc5)ccc4c23)C(=O)N1	26
Cl.Cl.NC[C@H](CC1CCCCC1)NC(=O)c1ccc(-c2ccnc3[nH]ccc23)s1	32
CCn1c(-c2nonc2N)nc2cncc(Br)c21	46
Cn1cc(-c2cccc3c(N)c(C(N)=O)nnc23)cn1	5

Problem: What value of %Inh has been recorded for this entry: CN(c1ccccc1CNc1nc(Nc2ccc3c(c2)CC(=O)N3)ncc1C(F)(F)F)S(C)(=O)=O
Result: 28

Problem: What value of %Inh has been recorded for this entry: Cn1ccc2ncnc(Oc3ccc(NC(=O)Nc4cccc(C(F)(F)F)c4)c(F)c3)c21
Result: 13

Problem: What value of %Inh has been recorded for this entry: CC(C(=O)NC1CCN(c2ccnc(Nc3ccc(F)cc3)n2)C1)c1ccc(Cl)cc1 (stereo not drawn)
Result: 0

Problem: What value of %Inh has been recorded for this entry: Cc1ccc2c(-c3ccnc(Nc4ccc(C(F)(F)F)cc4)n3)cnn2n1
Result: 25

Problem: What value of %Inh has been recorded for this entry: Cc1ccc(CC(=O)N2CCc3cc(-c4cn(C)c5ncnc(N)c45)ccc32)cc1
Result: 0

Problem: What value of %Inh has been recorded for this entry: CCOC(=O)N1CCC(n2cnc(-c3ccc(F)cc3)c2-c2ccnc(N)n2)CC1
Result: 0

Problem: What value of %Inh has been recorded for this entry: CCCC(=O)Nc1n[nH]c2ncccc12
Result: 0

Problem: What value of %Inh has been recorded for this entry: Cn1ccc2ncnc(Oc3ccc(NC(=O)Nc4cnn(C(C)(C)C)c4)c(Cl)c3)c21
Result: 0

Problem: What value of %Inh has been recorded for this entry: CS(=O)(=O)Nc1ccc(-c2ccnc3[nH]ccc23)cc1
Result: 89

Problem: What value of %Inh has been recorded for this entry: CC(C)c1nc(-c2cccc(NS(=O)(=O)c3ccccc3)c2)c(-c2ccnc(Nc3ccc4c(c3)CN(C)CC4)n2)s1
Result: 21

Problem: What value of %Inh has been recorded for this entry: COc1cc2nccc(Nc3ccc(Oc4ccccc4)cc3)c2cc1OC.Cl
Result: 2

Problem: What value of %Inh has been recorded for this entry: O=c1[nH]cc(-c2ccc(O)cc2)c2sc(-c3ccncc3)cc12
Result: 30

Problem: What value of %Inh has been recorded for this entry: CC(=O)c1c(-c2ccncc2)[nH]c(-c2ccncc2)c1C
Result: 19

Problem: What value of %Inh has been recorded for this entry: Cn1ccc2ncnc(Oc3ccc(NC(=O)Nc4cc(C(C)(C)C)on4)c(Cl)c3)c21
Result: 0
